Data provenance is ChEMBL document CHEMBL1147888.

Test system: Talaromyces marneffei
protocolNotes: Antifungal activity against Penicillium marneffei after 3 to 4 days by serial dilution method
Type: functional
For each record, write down the corresponding MIC.
Entry rule: numbers only, all in µg/mL.

# MIC lookup, item `CSc1ccc(Cc2nn(CN3CCN(C)CC3)c(=S)n2/N=C/c2ccc(Cl)cc2Cl)cc1` 6

# MIC lookup, item `CSc1ccc(Cc2nn(CN3CCOCC3)c(=S)n2/N=C/c2ccc3c(c2)OCO3)cc1` 12.5

# MIC lookup, item `CSc1ccc(Cc2nn(CN3CCN(C)CC3)c(=S)n2/N=C/c2ccc(C)cc2)cc1` 12.5

# MIC lookup, item `CSc1ccc(/C=N/n2c(Cc3ccc(SC)cc3)nn(CN3CCOCC3)c2=S)cc1` 12.5

# MIC lookup, item `COc1ccc(/C=N/n2c(Cc3ccc(SC)cc3)nn(CN3CCN(C)CC3)c2=S)cc1` 12.5

# MIC lookup, item Cc1cc(C2CCCCC2)n(O)c(=O)c1.NCCO [CICLOPIROX OLAMINE] 6

# MIC lookup, item `CSc1ccc(Cc2nn(CN3CCN(C)CC3)c(=S)n2/N=C/c2ccc(Cl)cc2)cc1` 6

# MIC lookup, item `CSc1ccc(Cc2nn(CN3CCOCC3)c(=S)n2/N=C/c2ccc(Cl)cc2Cl)cc1` 12.5

# MIC lookup, item `CSc1ccc(/C=N/n2c(Cc3ccc(SC)cc3)nn(CN3CCN(C)CC3)c2=S)cc1` 12.5

# MIC lookup, item `CSc1ccc(Cc2nn(CN3CCOCC3)c(=S)n2/N=C/c2ccc(Cl)cc2)cc1` 12.5
